SYSTEM NAME: Protein cereblon/Indoleamine 2,3-dioxygenase 1 (Homo sapiens, UniProt P14902+Q96SW2)
Sequence (P14902 whole entry, looked up): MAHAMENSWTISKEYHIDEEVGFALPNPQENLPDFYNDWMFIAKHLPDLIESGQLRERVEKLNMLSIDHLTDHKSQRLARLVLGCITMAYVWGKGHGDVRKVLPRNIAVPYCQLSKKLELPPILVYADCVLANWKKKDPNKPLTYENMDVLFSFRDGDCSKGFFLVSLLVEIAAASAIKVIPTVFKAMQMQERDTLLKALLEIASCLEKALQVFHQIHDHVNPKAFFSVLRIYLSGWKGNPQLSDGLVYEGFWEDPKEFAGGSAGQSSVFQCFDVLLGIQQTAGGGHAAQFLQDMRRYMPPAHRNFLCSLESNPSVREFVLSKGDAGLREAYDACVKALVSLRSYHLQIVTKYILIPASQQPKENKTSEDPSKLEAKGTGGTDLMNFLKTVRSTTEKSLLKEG
Sequence (Q96SW2 whole entry, looked up): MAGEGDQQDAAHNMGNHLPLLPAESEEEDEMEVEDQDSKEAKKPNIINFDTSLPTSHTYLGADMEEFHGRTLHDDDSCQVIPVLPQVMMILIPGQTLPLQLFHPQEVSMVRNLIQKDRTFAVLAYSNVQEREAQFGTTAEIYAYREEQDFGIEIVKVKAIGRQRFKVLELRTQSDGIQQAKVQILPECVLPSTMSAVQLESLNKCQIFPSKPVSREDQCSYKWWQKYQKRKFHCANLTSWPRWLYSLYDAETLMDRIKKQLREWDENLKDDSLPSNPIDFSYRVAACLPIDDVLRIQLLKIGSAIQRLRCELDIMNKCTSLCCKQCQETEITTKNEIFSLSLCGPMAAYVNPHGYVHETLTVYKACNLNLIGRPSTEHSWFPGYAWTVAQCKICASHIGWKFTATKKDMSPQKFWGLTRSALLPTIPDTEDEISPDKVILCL
MEASUREMENT DESCRIPTION: Protac activity at IDO1/CRBN in IFNgamma-stimulated human U87 cells assessed as IDO1 degradation at 10 uM measured after 24 hrs by Western blotting analysis relative to control
Assay type: cell-based
VALUE KIND: Activity (%)

Here are 5 compounds together with their reported answers.
[[record]]
compound = "C[C@@H](C(=O)Nc1ccc(Cl)c(OCCOCCOCCOCCOCCOCCOc2cccc3c2C(=O)N(C2CCC(=O)NC2=O)C3=O)c1)[C@H]1CC[C@@H](c2ccnc3ccc(F)cc32)CC1 (stereo partly drawn)"
system_name = "Protein cereblon/Indoleamine 2,3-dioxygenase 1 (Homo sapiens, UniProt P14902+Q96SW2)"
value_kind = "Activity"
result = 0

[[record]]
compound = "C[C@@H](C(=O)Nc1ccc(OCCOCCOCCNC(=O)COc2cccc3c2C(=O)N(C2CCC(=O)NC2=O)C3=O)cc1)[C@H]1CC[C@@H](c2ccnc3ccc(F)cc32)CC1 (stereo partly drawn)"
system_name = "Protein cereblon/Indoleamine 2,3-dioxygenase 1 (Homo sapiens, UniProt P14902+Q96SW2)"
value_kind = "Activity"
result = 47

[[record]]
compound = "C[C@@H](C(=O)Nc1ccc(Cl)c(OCCOCCOCCOCCOCCNC(=O)COc2cccc3c2C(=O)N(C2CCC(=O)NC2=O)C3=O)c1)[C@H]1CC[C@@H](c2ccnc3ccc(F)cc32)CC1 (stereo partly drawn)"
system_name = "Protein cereblon/Indoleamine 2,3-dioxygenase 1 (Homo sapiens, UniProt P14902+Q96SW2)"
value_kind = "Activity"
result = 0

[[record]]
compound = "C[C@@H](C(=O)Nc1ccc(OCCCCNc2cccc3c2C(=O)N(C2CCC(=O)NC2=O)C3=O)cc1)[C@H]1CC[C@@H](c2ccnc3ccc(F)cc32)CC1 (stereo partly drawn)"
system_name = "Protein cereblon/Indoleamine 2,3-dioxygenase 1 (Homo sapiens, UniProt P14902+Q96SW2)"
value_kind = "Activity"
result = 0

[[record]]
compound = "C[C@@H](C(=O)Nc1ccc(OC2CCN(CCCOCCOCCNC(=O)COc3cccc4c3C(=O)N(C3CCC(=O)NC3=O)C4=O)CC2)cc1)[C@H]1CC[C@@H](c2ccnc3ccc(F)cc32)CC1 (stereo partly drawn)"
system_name = "Protein cereblon/Indoleamine 2,3-dioxygenase 1 (Homo sapiens, UniProt P14902+Q96SW2)"
value_kind = "Activity"
result = 33


I. C[C@@H](C(=O)Nc1ccc(Cl)c(OCCOCCOCCNC(=O)COc2cccc3c2C(=O)N(C2CCC(=O)NC2=O)C3=O)c1)[C@H]1CC[C@@H](c2ccnc3ccc(F)cc32)CC1 (stereo partly drawn)
II. C[C@@H](C(=O)Nc1ccc(OC2CN(C(=O)CCOCCNC(=O)COc3cccc4c3C(=O)N(C3CCC(=O)NC3=O)C4=O)C2)cc1)[C@H]1CC[C@@H](c2ccnc3ccc(F)cc32)CC1 (stereo partly drawn)
III. C[C@@H](C(=O)Nc1ccc(OCCOCCOCCOCCOCCOc2cccc3c2C(=O)N(C2CCC(=O)NC2=O)C3=O)cc1)[C@H]1CC[C@@H](c2ccnc3ccc(F)cc32)CC1 (stereo partly drawn)
IV. C[C@@H](C(=O)Nc1ccc(Cl)c(OCCOCCNC(=O)COc2cccc3c2C(=O)N(C2CCC(=O)NC2=O)C3=O)c1)[C@H]1CC[C@@H](c2ccnc3ccc(F)cc32)CC1 (stereo partly drawn)
Reorder: Activity, max to min. // list labels; follow requested order
II, I, IV, III

I. C[C@@H](C(=O)Nc1ccc(OC2CCN(CCCOCCOCCOc3cccc4c3C(=O)N(C3CCC(=O)NC3=O)C4=O)CC2)cc1)[C@H]1CC[C@@H](c2ccnc3ccc(F)cc32)CC1 (stereo partly drawn)
II. C[C@@H](C(=O)Nc1ccc(Cl)c(OCCOCCNc2cccc3c2C(=O)N(C2CCC(=O)NC2=O)C3=O)c1)[C@H]1CC[C@@H](c2ccnc3ccc(F)cc32)CC1 (stereo partly drawn)
Lower value of Activity belongs to which: I or II ? Respond with the label that goes with your answer.
I
(I: 0%, II: 66%)

1. C[C@@H](C(=O)Nc1ccc(Cl)c(OCCCNc2cccc3c2C(=O)N(C2CCC(=O)NC2=O)C3=O)c1)[C@H]1CC[C@@H](c2ccnc3ccc(F)cc32)CC1 (stereo partly drawn)
2. C[C@@H](C(=O)Nc1ccc(Cl)c(OCCCCCCCCCNC(=O)COc2cccc3c2C(=O)N(C2CCC(=O)NC2=O)C3=O)c1)[C@H]1CC[C@@H](c2ccnc3ccc(F)cc32)CC1 (stereo partly drawn)
Hi, I'm comparing 1 with 2 and wondering which one has the bigger number for Activity. Any idea? Indicate your choice by writing its label.
1
(1: 36%, 2: 0%)

These measurements were taken from ChEMBL document CHEMBL5150051.
